# target_or_system: APOL1 G2 (Homo sapiens, UniProt O14791, DEL388-389)
# Construct: expressed in transfected cells; host or cells: HEK293 T-REx clonal line stably expressing GCaMP6f (HEK T-REx/GCaMP6f/APOL1 G2 K6.3), doxycycline induced
# Sequence (O14791 with tags, fused parts or gaps DEL388-389): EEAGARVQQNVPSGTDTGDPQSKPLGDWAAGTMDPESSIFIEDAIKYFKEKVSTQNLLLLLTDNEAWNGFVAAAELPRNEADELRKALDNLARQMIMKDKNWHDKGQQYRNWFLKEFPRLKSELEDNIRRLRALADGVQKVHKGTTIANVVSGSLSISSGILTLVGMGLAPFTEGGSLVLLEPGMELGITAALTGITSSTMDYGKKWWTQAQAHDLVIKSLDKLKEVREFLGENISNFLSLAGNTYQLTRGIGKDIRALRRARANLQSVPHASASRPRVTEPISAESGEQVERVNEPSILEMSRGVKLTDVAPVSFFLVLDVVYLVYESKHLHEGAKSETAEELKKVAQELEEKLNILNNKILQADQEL
# test: APOL1-mediated calcium transport (calcium influx) assay, HEK T-REx/GCaMP6f/APOL1 G2 K6.3 cells, FLIPR TETRA
# Format: cell-based
# condition_context: prevention of calcium influx; geometric mean of at least 2 assay runs; † = average of a technical replicate from a single assay run
// classify: if (AC50 < 700 nM) Criterion met else Criterion not met

- C[C@@H](CN1CCC2(CC1)C(=O)Nc1ccccc12)Oc1ccc(S(C)(=O)=O)cc1 (single isomer, unassigned): Criterion met
- C[C@]1(O)C[C@@H](N2C(=O)CCc3cc(OCCN4CCC5(CC4)C(=O)Nc4ccc(Cl)cc45)cnc32)C1: Criterion met
- [2H]C([2H])(Oc1cc(C(F)(F)F)c2c(c1)ncn2[C@H]1C[C@@](C)(O)C1)C([2H])([2H])N1CCC2(CC1)C(=O)Nc1ccc(Cl)cc12: Criterion not met
- C[C@]1(O)C[C@H](N2C(=O)CCc3cc(OCCN4CCC5(CC4)C(=O)Nc4ccc(Cl)cc45)cnc32)C1 (single isomer, unassigned): Criterion met
- O=C(c1c(F)cc(OCCN2CCC3(CC2)C(=O)Nc2ccc(Cl)cc23)cc1F)N1CCS(=O)(=O)CC1: Criterion met
